# Organism: Homo sapiens
# assay: Selectivity ratio of IC50 for human placental microsomal fraction 17beta-HSD2 to IC50 for human placental microsomal fraction 17beta-HSD1
Ratio IC50: recorded values
Answer with a number only.

> print(dat)
                              smiles.record  readout.number
1  Cc1cc(-c2ccc(C(=O)N(C)c3cccc(OS(N)(=O)=O)c3)o2)cc(C)c1O              36
2  Cc1ccccc1N(C)C(=O)c1ccc(-c2cc(C)c(O)c(C)c2)o1             570
3  Cc1ccc(OS(N)(=O)=O)cc1N(C)C(=O)c1ccc(-c2cc(C)c(O)c(C)c2)o1             275

# input Sample Cc1cc(OS(N)(=O)=O)ccc1N(C)C(=O)c1ccc(-c2cc(C)c(O)c(C)c2)o1 — what was its Ratio IC50?
# output 145

# input Sample Cc1cc(OS(N)(=O)=O)c(Cl)cc1N(C)C(=O)c1ccc(-c2cc(C)c(O)c(C)c2)o1 — what was its Ratio IC50?
# output 110

# input Sample NS(=O)(=O)Oc1ccc(-c2ccc(C(=O)c3c(F)ccc(O)c3F)s2)cc1Cl — what was its Ratio IC50?
# output 33

# input Sample Cc1cc(-c2ccc(C(=O)N(C)c3ccc(OS(N)(=O)=O)c(Cl)c3)o2)cc(C)c1O — what was its Ratio IC50?
# output 6

# input Sample Cc1cc(-c2ccc(C(=O)N(C)c3ccc(OS(N)(=O)=O)c(F)c3)o2)cc(C)c1O — what was its Ratio IC50?
# output 6

# input Sample Cc1cc(-c2ccc(C(=O)N(C)c3ccc(OS(N)(=O)=O)cc3)o2)cc(C)c1O — what was its Ratio IC50?
# output 18

====

# assay: Metabolic stability in human liver S9 fraction assessed as half life measured upto 60 mins in presence of NADPH by LC-MS/MS analysis
# Format: ADME, subcellular
# reported_conditions: liver S9 fraction
metric_name: half-life (min)
Enter your answer as a number in min; do not include the unit.

Example cases with answers are listed next.
> print(dat)
                              smiles.record  metric.name  readout.number
1  Cc1cc(OS(N)(=O)=O)c(Cl)cc1N(C)C(=O)c1ccc(-c2cc(C)c(O)c(C)c2)o1    half-life            35.6
2  Cc1cc(OS(N)(=O)=O)ccc1N(C)C(=O)c1ccc(-c2cc(C)c(O)c(C)c2)o1    half-life            85.2
3  Cc1ccccc1N(C)C(=O)c1ccc(-c2cc(C)c(O)c(C)c2)o1    half-life              38

Here is the next item to consider.
# input Sample Cc1ccc(OS(N)(=O)=O)cc1N(C)C(=O)c1ccc(-c2cc(C)c(O)c(C)c2)o1 — what was its half-life?
# output 19.3

====

# assay: Aqueous solubility of compound in PBS measured after 1 to 24 hrs
# Type: physicochemical
# reported_conditions: time 1-24 hrs
metric_name: solubility (µM)
Enter your answer as a number in µM; do not include the unit.

Example cases with answers are listed next.
> print(dat)
                              smiles.record  metric.name  readout.number
1  Cc1cc(OS(N)(=O)=O)c(Cl)cc1N(C)C(=O)c1ccc(-c2cc(C)c(O)c(C)c2)o1   solubility              20
2  Cc1ccc(OS(N)(=O)=O)cc1N(C)C(=O)c1ccc(-c2cc(C)c(O)c(C)c2)o1   solubility              20

# input Sample Cc1cc(OS(N)(=O)=O)ccc1N(C)C(=O)c1ccc(-c2cc(C)c(O)c(C)c2)o1 — what was its solubility?
# output 40

====

# test_system: 17-beta-hydroxysteroid dehydrogenase type 2 (Homo sapiens)
# Sequence (P37059 whole entry): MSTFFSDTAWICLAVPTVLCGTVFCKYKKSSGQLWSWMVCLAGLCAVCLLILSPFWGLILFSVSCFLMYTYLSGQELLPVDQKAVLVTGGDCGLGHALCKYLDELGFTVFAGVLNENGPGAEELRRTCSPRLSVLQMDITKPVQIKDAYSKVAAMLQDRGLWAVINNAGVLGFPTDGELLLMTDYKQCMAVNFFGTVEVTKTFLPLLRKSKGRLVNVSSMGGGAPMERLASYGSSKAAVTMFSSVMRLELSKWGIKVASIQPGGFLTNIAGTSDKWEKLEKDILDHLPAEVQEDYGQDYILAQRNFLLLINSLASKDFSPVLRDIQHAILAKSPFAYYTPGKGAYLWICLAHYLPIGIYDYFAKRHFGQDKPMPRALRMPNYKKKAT
IC50: recorded values
Enter your answer as a number in µM; do not include the unit.

> print(dat)
                              smiles.record  metric.name  readout.number
1  Cc1ccc(OS(N)(=O)=O)cc1N(C)C(=O)c1ccc(-c2cc(C)c(O)c(C)c2)o1         IC50             4.4
2  Cc1cc(OS(N)(=O)=O)c(Cl)cc1N(C)C(=O)c1ccc(-c2cc(C)c(O)c(C)c2)o1         IC50             7.5
3  Cc1cc(-c2ccc(C(=O)N(C)c3cccc(OS(N)(=O)=O)c3)o2)cc(C)c1O         IC50             6.4
4  Cc1cc(-c2ccc(C(=O)N(C)c3ccc(OS(N)(=O)=O)c(Cl)c3)o2)cc(C)c1O         IC50             2.4

# input Sample Cc1cc(OS(N)(=O)=O)ccc1N(C)C(=O)c1ccc(-c2cc(C)c(O)c(C)c2)o1 — what was its IC50?
# output 6.2

====

# assay: Oral bioavailability in C57BL/6 mouse at 50 mg/kg administered as single dose measured after 24 hrs by HPLC-MS/MS analysis
# Format: ADME, organism-based
# reported_conditions: in vivo
metric_name: bioavailability (%)
Enter your answer as a number in %; do not include the unit.

# input Sample Cc1cc(OS(N)(=O)=O)ccc1N(C)C(=O)c1ccc(-c2cc(C)c(O)c(C)c2)o1 — what was its bioavailability?
# output 1.5

====

# test_system: 17-beta-hydroxysteroid dehydrogenase type 1 (Homo sapiens, UniProt P14061)
# Sequence (P14061 whole entry): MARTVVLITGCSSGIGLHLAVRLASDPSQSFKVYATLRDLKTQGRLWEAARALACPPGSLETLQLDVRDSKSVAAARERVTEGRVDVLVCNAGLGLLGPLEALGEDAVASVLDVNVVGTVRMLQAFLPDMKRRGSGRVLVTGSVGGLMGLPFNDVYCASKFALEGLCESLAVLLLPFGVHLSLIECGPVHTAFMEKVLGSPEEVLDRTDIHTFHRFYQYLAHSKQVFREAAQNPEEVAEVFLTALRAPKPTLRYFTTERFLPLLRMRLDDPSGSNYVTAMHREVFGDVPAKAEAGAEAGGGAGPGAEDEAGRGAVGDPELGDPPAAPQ
# assay: Inhibition of human placental cytosolic fraction 17beta-HSD1 using [3H]E1 as substrate measured after 10 mins in presence of NADH by HPLC analysis
# Assay type: tissue-based, Placenta
Strictly below 400 nM in IC50: Condition met. Otherwise: Condition not met.

Record excerpt, results attached:
> print(dat)
                              smiles.record     assigned.label
1  Cc1cc(OS(N)(=O)=O)ccc1N(C)C(=O)c1ccc(-c2cc(C)c(O)c(C)c2)o1      Condition met
2  Cc1cc(-c2ccc(C(=O)N(C)c3cccc(OS(N)(=O)=O)c3)o2)cc(C)c1O      Condition met
3  Cc1cc(-c2ccc(C(=O)N(C)c3ccc(OS(N)(=O)=O)c(F)c3)o2)cc(C)c1O  Condition not met

# input Item Cc1cc(-c2ccc(C(=O)N(C)c3ccc(OS(N)(=O)=O)cc3)o2)cc(C)c1O : IC50 beneath 400 nM, strictly?
# output Condition not met

# input Item Cc1cc(OS(N)(=O)=O)c(Cl)cc1N(C)C(=O)c1ccc(-c2cc(C)c(O)c(C)c2)o1 : IC50 beneath 400 nM, strictly?
# output Condition met

# input Item Cc1ccc(OS(N)(=O)=O)cc1N(C)C(=O)c1ccc(-c2cc(C)c(O)c(C)c2)o1 : IC50 beneath 400 nM, strictly?
# output Condition met

====

# test_system: Steryl-sulfatase (Homo sapiens)
# Sequence (P08842 whole entry): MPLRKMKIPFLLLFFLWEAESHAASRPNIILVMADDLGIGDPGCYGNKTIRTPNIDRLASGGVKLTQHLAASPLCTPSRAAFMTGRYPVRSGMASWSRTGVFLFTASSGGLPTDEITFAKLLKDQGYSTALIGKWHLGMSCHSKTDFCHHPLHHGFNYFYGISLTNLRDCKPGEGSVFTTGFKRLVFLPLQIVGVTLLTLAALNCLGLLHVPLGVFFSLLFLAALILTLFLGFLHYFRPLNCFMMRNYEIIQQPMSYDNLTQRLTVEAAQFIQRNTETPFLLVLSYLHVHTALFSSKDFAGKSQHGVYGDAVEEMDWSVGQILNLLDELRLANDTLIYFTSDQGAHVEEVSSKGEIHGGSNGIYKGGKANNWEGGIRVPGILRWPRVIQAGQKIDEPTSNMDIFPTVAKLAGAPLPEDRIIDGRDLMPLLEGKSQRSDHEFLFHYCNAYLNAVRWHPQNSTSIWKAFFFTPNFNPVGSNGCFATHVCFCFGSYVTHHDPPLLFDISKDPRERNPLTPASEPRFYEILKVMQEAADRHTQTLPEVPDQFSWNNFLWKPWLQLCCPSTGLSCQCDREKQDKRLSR
# assay: Irreversible inhibition of human STS expressed in human T47D cells using [3H]E1S as substrate preincubated for 2 hr followed by substrate addition measured after 24 hrs in presence of E1S by HPLC analysis
# Type: cell-based
IC50: recorded values
Enter your answer as a number in nM; do not include the unit.

Example cases with answers are listed next.
> print(dat)
                              smiles.record  metric.name  readout.number
1  Cc1ccc(OS(N)(=O)=O)cc1N(C)C(=O)c1ccc(-c2cc(C)c(O)c(C)c2)o1         IC50             460
2  Cc1cc(OS(N)(=O)=O)c(Cl)cc1N(C)C(=O)c1ccc(-c2cc(C)c(O)c(C)c2)o1         IC50              79

Here is the next item to consider.
# input Sample Cc1cc(OS(N)(=O)=O)ccc1N(C)C(=O)c1ccc(-c2cc(C)c(O)c(C)c2)o1 — what was its IC50?
# output 420
